pIC50: −log10 of the molar value.
Values of pIC50 reported for UniProtKB O42275 appear below.
Sequence (O42275 whole entry): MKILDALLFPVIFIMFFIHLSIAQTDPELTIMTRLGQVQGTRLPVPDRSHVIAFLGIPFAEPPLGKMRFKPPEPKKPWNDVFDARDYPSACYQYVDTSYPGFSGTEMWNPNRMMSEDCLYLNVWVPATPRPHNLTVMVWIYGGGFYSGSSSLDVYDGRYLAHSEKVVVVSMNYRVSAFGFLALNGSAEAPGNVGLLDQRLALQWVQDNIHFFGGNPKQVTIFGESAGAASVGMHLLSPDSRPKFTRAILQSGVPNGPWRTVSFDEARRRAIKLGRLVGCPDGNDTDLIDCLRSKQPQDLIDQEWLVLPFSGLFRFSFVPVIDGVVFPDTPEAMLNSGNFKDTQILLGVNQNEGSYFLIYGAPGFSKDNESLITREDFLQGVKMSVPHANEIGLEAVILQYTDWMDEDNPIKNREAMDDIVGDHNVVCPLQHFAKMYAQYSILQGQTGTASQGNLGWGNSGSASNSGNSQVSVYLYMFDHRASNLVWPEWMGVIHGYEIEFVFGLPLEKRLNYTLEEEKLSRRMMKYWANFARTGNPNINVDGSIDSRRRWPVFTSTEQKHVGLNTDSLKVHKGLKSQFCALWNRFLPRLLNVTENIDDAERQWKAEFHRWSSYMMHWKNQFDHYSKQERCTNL

substance.smiles	pIC50
COc1ccc(/C=C2\CN(C)C[C@@]3(C2=O)[C@@H](c2ccc(OC)cc2)[C@@H]2CSCN2[C@@]32C(=O)c3cccc4cccc2c34)cc1	4.91
Cc1ccc(/C=C2\CN(C)C[C@@]3(C2=O)[C@@H](c2ccc(C)cc2)[C@@H]2CSCN2[C@@]32C(=O)c3cccc4cccc2c34)cc1	5.73
CN1C/C(=C\c2ccc(Cl)cc2Cl)C(=O)[C@]2(C1)[C@@H](c1ccc(Cl)cc1Cl)[C@@H]1CCCCN1[C@@]21C(=O)c2cccc3cccc1c23	4.76
Cc1ccccc1/C=C1\CN(C)C[C@@]2(C1=O)[C@@H](c1ccccc1C)[C@@H]1CSCN1[C@@]21C(=O)c2cccc3cccc1c23	5.20
CN1C/C(=C\c2cccc([N+](=O)[O-])c2)C(=O)[C@]2(C1)[C@@H](c1cccc([N+](=O)[O-])c1)[C@@H]1CCCCN1[C@@]21C(=O)c2cccc3cccc1c23	4.60
CN1C/C(=C\c2ccc(Cl)cc2)C(=O)[C@]2(C1)[C@@H](c1ccc(Cl)cc1)[C@@H]1CSCN1[C@@]21C(=O)c2cccc3cccc1c23	4.95
CN1C/C(=C\c2ccccc2F)C(=O)[C@]2(C1)[C@@H](c1ccccc1F)[C@@H]1CSCN1[C@@]21C(=O)c2cccc3cccc1c23	4.90
CN1C/C(=C\c2cccc(F)c2)C(=O)[C@]2(C1)[C@@H](c1cccc(F)c1)[C@@H]1CSCN1[C@@]21C(=O)c2cccc3cccc1c23	4.95
CN1C/C(=C\c2ccc([N+](=O)[O-])cc2)C(=O)[C@]2(C1)[C@@H](c1ccc([N+](=O)[O-])cc1)[C@@H]1CCCCN1[C@@]21C(=O)c2cccc3cccc1c23	5.04
CN1C/C(=C\c2ccccc2Cl)C(=O)[C@]2(C1)[C@@H](c1ccccc1Cl)[C@@H]1CSCN1[C@@]21C(=O)c2cccc3cccc1c23	4.91
CN1C/C(=C\c2cccc(Cl)c2Cl)C(=O)[C@]2(C1)[C@@H](c1cccc(Cl)c1Cl)[C@@H]1CCCCN1[C@@]21C(=O)c2cccc3cccc1c23	4.62
Cc1ccc(/C=C2\CN(C)C[C@@]3(C2=O)[C@@H](c2ccc(C)cc2)[C@@H]2CCCCN2[C@@]32C(=O)c3cccc4cccc2c34)cc1	5.65
CN1C/C(=C\c2ccccc2F)C(=O)[C@]2(C1)[C@@H](c1ccccc1F)[C@@H]1CCCCN1[C@@]21C(=O)c2cccc3cccc1c23	4.47
CN1C/C(=C\c2ccccc2)C(=O)[C@]2(C1)[C@@H](c1ccccc1)[C@@H]1CSCN1[C@@]21C(=O)c2cccc3cccc1c23	4.78
CN1C/C(=C\c2cccc(Cl)c2Cl)C(=O)[C@]2(C1)[C@@H](c1cccc(Cl)c1Cl)[C@@H]1CSCN1[C@@]21C(=O)c2cccc3cccc1c23	4.72
COc1ccc(/C=C2\CN(C)C[C@@]3(C2=O)[C@@H](c2ccc(OC)cc2)[C@@H]2CCCCN2[C@@]32C(=O)c3cccc4cccc2c34)cc1	4.65
CN1C/C(=C\c2ccc(F)cc2)C(=O)[C@]2(C1)[C@@H](c1ccc(F)cc1)[C@@H]1CSCN1[C@@]21C(=O)c2cccc3cccc1c23	4.80
